Attribution: patent US9198433B2

Test system: Phytophthora infestans
Assay type: in vivo
ASSAY SETUP: 200 ppm; tomato late blight
Listing: Percentage Disease Control, Test J of selected molecules
PARAMETER MEASURED: Percentage Disease Control, Test J (%)

- MOLECULE: "COC(=O)NCc1cc(-c2ccn(Cc3cnc(Cl)s3)n2)ccc1Cl"
  STUDY SYSTEM: "Phytophthora infestans"
  PARAMETER MEASURED: "Percentage Disease Control, Test J"
  MEASURE UNIT: "%"
  OBSERVED MEASUREMENT: 0
- MOLECULE: "COC(=O)NCc1cc(-c2ccn(-c3ccccc3)n2)ccc1Cl"
  STUDY SYSTEM: "Phytophthora infestans"
  PARAMETER MEASURED: "Percentage Disease Control, Test J"
  MEASURE UNIT: "%"
  OBSERVED MEASUREMENT: 0
- MOLECULE: "C=C[Si](C)(C)CON=C(C)c1ccc(Cl)c(CNC(=O)OC)c1"
  STUDY SYSTEM: "Phytophthora infestans"
  PARAMETER MEASURED: "Percentage Disease Control, Test J"
  MEASURE UNIT: "%"
  OBSERVED MEASUREMENT: 0
- MOLECULE: "COC(=O)NCc1cc(-c2ccn(C)n2)ccc1Cl"
  STUDY SYSTEM: "Phytophthora infestans"
  PARAMETER MEASURED: "Percentage Disease Control, Test J"
  MEASURE UNIT: "%"
  OBSERVED MEASUREMENT: 0
- MOLECULE: "COC(=O)NCc1cc(-c2ccn(CCC[Si](C)(C)C)n2)ccc1Cl"
  STUDY SYSTEM: "Phytophthora infestans"
  PARAMETER MEASURED: "Percentage Disease Control, Test J"
  MEASURE UNIT: "%"
  OBSERVED MEASUREMENT: 91
- MOLECULE: "COC(=O)NCc1cc(-c2ccn(CC#N)n2)ccc1Cl"
  STUDY SYSTEM: "Phytophthora infestans"
  PARAMETER MEASURED: "Percentage Disease Control, Test J"
  MEASURE UNIT: "%"
  OBSERVED MEASUREMENT: 60
- MOLECULE: "COC(=O)NCc1cc(-c2ccn(CCC=C(C)C)n2)ccc1Cl"
  STUDY SYSTEM: "Phytophthora infestans"
  PARAMETER MEASURED: "Percentage Disease Control, Test J"
  MEASURE UNIT: "%"
  OBSERVED MEASUREMENT: 0
- MOLECULE: "COC(=O)NCc1cc(C(C)=NOCC(C)[Si](C)(C)C)ccc1Cl (centres unmarked)"
  STUDY SYSTEM: "Phytophthora infestans"
  PARAMETER MEASURED: "Percentage Disease Control, Test J"
  MEASURE UNIT: "%"
  OBSERVED MEASUREMENT: 0
- MOLECULE: "COC(=O)NCc1cc(C(C)=NOCC[Si](C)(C)C)ccc1Cl"
  STUDY SYSTEM: "Phytophthora infestans"
  PARAMETER MEASURED: "Percentage Disease Control, Test J"
  MEASURE UNIT: "%"
  OBSERVED MEASUREMENT: 0
- MOLECULE: "C=C(CON=C(C)c1ccc(Cl)c(CNC(=O)OC)c1)C[Si](C)(C)C"
  STUDY SYSTEM: "Phytophthora infestans"
  PARAMETER MEASURED: "Percentage Disease Control, Test J"
  MEASURE UNIT: "%"
  OBSERVED MEASUREMENT: 0
- MOLECULE: "CC[Si](C)(C)Cn1ccc(-c2ccc(Cl)c(CNC(=O)OC)c2)n1"
  STUDY SYSTEM: "Phytophthora infestans"
  PARAMETER MEASURED: "Percentage Disease Control, Test J"
  MEASURE UNIT: "%"
  OBSERVED MEASUREMENT: 0
- MOLECULE: "COC(=O)NCc1cc(-c2ccn(CCC(C)C)n2)ccc1Cl"
  STUDY SYSTEM: "Phytophthora infestans"
  PARAMETER MEASURED: "Percentage Disease Control, Test J"
  MEASURE UNIT: "%"
  OBSERVED MEASUREMENT: 50
- MOLECULE: "COC(=O)NCc1cc(-c2ccn(CCCC#N)n2)ccc1Cl"
  STUDY SYSTEM: "Phytophthora infestans"
  PARAMETER MEASURED: "Percentage Disease Control, Test J"
  MEASURE UNIT: "%"
  OBSERVED MEASUREMENT: 0
- MOLECULE: "COC(=O)NCc1cc(-c2cc[nH]n2)ccc1Cl"
  STUDY SYSTEM: "Phytophthora infestans"
  PARAMETER MEASURED: "Percentage Disease Control, Test J"
  MEASURE UNIT: "%"
  OBSERVED MEASUREMENT: 0
- MOLECULE: "COC(=O)NCc1cc(C(C)=NOC[Si](C)(C)c2ccc(Cl)cc2)ccc1Cl"
  STUDY SYSTEM: "Phytophthora infestans"
  PARAMETER MEASURED: "Percentage Disease Control, Test J"
  MEASURE UNIT: "%"
  OBSERVED MEASUREMENT: 0
- MOLECULE: "COC(=O)NOc1cc(-c2cccc(OC(F)(F)F)c2)ccc1Cl"
  STUDY SYSTEM: "Phytophthora infestans"
  PARAMETER MEASURED: "Percentage Disease Control, Test J"
  MEASURE UNIT: "%"
  OBSERVED MEASUREMENT: 89
- MOLECULE: "COC(=O)NCc1cc(-c2ccn(Cc3cccc(C)n3)n2)ccc1Cl"
  STUDY SYSTEM: "Phytophthora infestans"
  PARAMETER MEASURED: "Percentage Disease Control, Test J"
  MEASURE UNIT: "%"
  OBSERVED MEASUREMENT: 0
